PROTOCOL NOTES: 14C assay with IPTG-induced recombinant E. coli cells (14CO2 capture from [14C]-carboxyl-labeled dicamba)
TEST SETTINGS: IPTG-induced recombinant E. coli cells; [14C]-carboxyl-labeled dicamba; 14CO2 capture
OBSERVATION TYPE: Dicamba Decarboxylase Activity

molecule="99 (protein, listed as Ralstonia solanacearum) MAIIDCHGHFTTAPTALEDWRKRQIANLATPALGPSPDDLKISDDALTEAIRANQLRLMQARGSDLTIFSPRASFMAHHIGDFHTSATWAAICNALCHRVSQLFPDHFVGAAMLPQSPGVDIRTCIPELARCIVDYGFVGVNLNPDPSGGHWTSPPLSDPYWFPLYEKLVEYDVPAMIHVSTSCNACFHTTGAHYLNADTTAFMQVLTSDLFRRFPTLKFVIPHGGGAVPYHWGRFRGLAQELKTPPLQEHLLHNVFFDTCVYHQPGIDLLTRVIPVDNILFASEMIGAVRGIDPETGHPFDDTRRYIDQAHTLSAEDRHKIYEGNARRVYPRLDARLKARGR" test_value=No
molecule="21 (protein, listed as Agrobacterium tumefaciens) MAQGKVALEEHFAIPETLQDSAGFVPGDYWKELQHRLLDIQDTRLKLMDAHGIETMILSLNAPAVQAIPDRKKAIEIARRANDVLAEECARRPDRFLAFAALPLQDPDAATQELQRCVNDLGFVGALVNGFSQEGDGQTPLYYDLPQYRPFWGEVEKLDVPFYLHPRNPLPQDSRIYDGHPWLLGPTWAFAQETAVHALRLMASGLFDAHPRLNIILGHMGEGLPYMMWRIDHRNAWVKLPPRYPAKRRFVDYFNENFHITTSGNFRTQTLIDAILEIGADRILFSTDWPFENIDHASDWFNATTIAEADRVKIGRTNARRLFKLDGR" test_value=High
